Exercise: for every item that follows, state its recorded concentration at 1 h.
- assay-name: Additional mouse blood levels after intramuscular administration (Table 4)
- Type: in vivo
- measurement-conditions: 10 mg/kg, mice, im, dose 10, 1 hour, read-out: Blood level
Counter-ions that a name gives are not always drawn.
One number for each entry, in ng/mL.

| compound | concentration at 1 h, ng/mL |
| --- | --- |
| CCN1CCN(C(=O)N[C@@H](C(=O)N[C@@H]2C(=O)N3C(C(=O)O)=C(CSc4nnnn4C)CS[C@H]23)c2ccc(O)cc2)C(=O)C1=O [Cefoperazone, reference compound] | 1200 |

Req: For CN(C)Cc1ccc[n+](CC2=C(C(=O)[O-])N3C(=O)C(NC(=O)[C@H](NC(=O)c4cnc5cccnc5c4O)c4ccc(O)cc4)C3SC2)c1 (some centres unmarked) [BB-S 651, Hydrochloride] , what is its reported concentration at 1 h?
Resp: 2500

###

- assay-name: Additional mouse blood levels after intramuscular administration (Table 4)
- Type: in vivo
- measurement-conditions: 20 mg/kg, mice, im, dose 20, 1/4 hour, read-out: Blood level
Where a name gives a salt, the structure may show the parent alone.
metric: concentration at 0.25 h (ng/mL)
Give bare numbers, in ng/mL.

| molecule | recorded-value |
| --- | --- |
| CN(C)Cc1ccc[n+](CC2=C(C(=O)[O-])N3C(=O)C(NC(=O)[C@H](NC(=O)c4cnc5cccnc5c4O)c4ccc(O)cc4)C3SC2)c1 (some centres unmarked) [BB-S 651, Hydrochloride] | 10000 |

The record that follows has no concentration at 0.25 h shown yet.
Req: For CCN1CCN(C(=O)N[C@@H](C(=O)N[C@@H]2C(=O)N3C(C(=O)O)=C(CSc4nnnn4C)CS[C@H]23)c2ccc(O)cc2)C(=O)C1=O [Cefoperazone, reference compound] , what is its reported concentration at 0.25 h?
Resp: 10500

###

- assay-name: Additional mouse blood levels after intramuscular administration (Table 4)
- Assay type: in vivo
- measurement-conditions: mice, im, 40 mg/kg, 1/2 hour, read-out: Blood level
Where a name gives a salt, the structure may show the parent alone.
metric: concentration at 0.5 h (ng/mL)
Numbers only, in ng/mL.

| compound | concentration at 0.5 h [ng/mL] |
| --- | --- |
| CN(C)Cc1ccc[n+](CC2=C(C(=O)[O-])N3C(=O)C(NC(=O)[C@H](NC(=O)c4cnc5cccnc5c4O)c4ccc(O)cc4)C3SC2)c1 (some centres unmarked) [BB-S 651, Hydrochloride] | 14000 |

Req: For CCN1CCN(C(=O)N[C@@H](C(=O)N[C@@H]2C(=O)N3C(C(=O)O)=C(CSc4nnnn4C)CS[C@H]23)c2ccc(O)cc2)C(=O)C1=O [Cefoperazone, reference compound] , what is its reported concentration at 0.5 h?
Resp: 12000

###

- assay-name: Mouse blood levels after intramuscular administration (Table 3)
- Assay type: in vivo
- measurement-conditions: im, 40 mg/kg, 60', read-out: Blood level
Structures can show the parent of a compound that is named as a salt.
metric: concentration at 1 h (ng/mL)
One number for each entry, in ng/mL.

| compound | recorded-value |
| --- | --- |
| CCN1CCN(C(=O)N[C@@H](C(=O)N[C@@H]2C(=O)N3C(C(=O)O)=C(CSc4nnnn4C)CS[C@H]23)c2ccc(O)cc2)C(=O)C1=O [Cefoperazone, reference compound] | 2500 |

The record that follows has no concentration at 1 h shown yet.
Req: For CN(C)Cc1ccc[n+](CC2=C(C(=O)[O-])N3C(=O)C(NC(=O)[C@H](NC(=O)c4cnc5cccnc5c4O)c4ccc(O)cc4)C3SC2)c1 (some centres unmarked) [BB-S 651, Hydrochloride] , what is its reported concentration at 1 h?
Resp: 11000

###

Exercise: for every item that follows, state its recorded MIC.
- Test system: E. coli A15164
- assay-name: MIC, serial two-fold agar dilution (Table 1)
- Assay type: cell-based
- measurement-conditions: Escherichia coli; E. coli A15164, cephalothin-resistant; Mueller-Hinton agar
Structures can show the parent of a compound that is named as a salt.
Numbers only, in mg/L.

See these solved cases before continuing.
| compound | MIC, mg/L |
| --- | --- |
| CN(C)Cc1ccc[n+](CC2=C(C(=O)[O-])N3C(=O)C(NC(=O)[C@H](NC(=O)c4cnc5cccnc5c4O)c4ccccc4)C3SC2)c1 (stereo partly shown) [BB-S 676] | 50 |
| CC1(C)S[C@@H]2[C@H](NC(=O)C(C(=O)O)c3ccccc3)C(=O)N2[C@H]1C(=O)O (stereo partly shown) [Carbenicillin, reference compound] | 6.3 |
| CN(C)Cc1cc[n+](CC2=C(C(=O)[O-])N3C(=O)C(NC(=O)[C@H](NC(=O)c4cnc5cccnc5c4O)c4ccc(O)cc4)C3SC2)cc1 (stereo partly shown) [BB-S 669, Hydrochloride] | 6.3 |

The record that follows has no MIC shown yet.
Req: For CN(C)Cc1ccc[n+](CC2=C(C(=O)[O-])N3C(=O)C(NC(=O)[C@H](NC(=O)c4cnc5cccnc5c4O)c4ccc(O)cc4)C3SC2)c1 (stereo partly shown) [BB-S 651, Hydrochloride] , what is its reported MIC?
Resp: 25

###

- assay-name: Mouse blood levels after intramuscular administration (Table 3)
- Assay type: in vivo
- measurement-conditions: im, 20 mg/kg, 30', read-out: Blood level
Where a name gives a salt, the structure may show the parent alone.
metric: concentration at 0.5 h (ng/mL)
One number for each entry, in ng/mL.

| compound | concentration at 0.5 h [ng/mL] |
| --- | --- |
| CCN1CCN(C(=O)N[C@@H](C(=O)N[C@@H]2C(=O)N3C(C(=O)O)=C(CSc4nnnn4C)CS[C@H]23)c2ccc(O)cc2)C(=O)C1=O [Cefoperazone, reference compound] | 5500 |

The record that follows has no concentration at 0.5 h shown yet.
Req: For CN(C)Cc1ccc[n+](CC2=C(C(=O)[O-])N3C(=O)C(NC(=O)[C@H](NC(=O)c4cnc5cccnc5c4O)c4ccc(O)cc4)C3SC2)c1 (some centres unmarked) [BB-S 651, Hydrochloride] , what is its reported concentration at 0.5 h?
Resp: 9000

###

- assay-name: Mouse blood levels after intramuscular administration (Table 3)
- Format: in vivo
- measurement-conditions: im, 40 mg/kg, 120', read-out: Blood level
Counter-ions that a name gives are not always drawn.
metric: concentration at 2 h (ng/mL)
Answers are plain numbers, in ng/mL.

Req: For CN(C)Cc1ccc[n+](CC2=C(C(=O)[O-])N3C(=O)C(NC(=O)[C@H](NC(=O)c4cnc5cccnc5c4O)c4ccc(O)cc4)C3SC2)c1 (some centres unmarked) [BB-S 651, Hydrochloride] , what is its reported concentration at 2 h?
Resp: 3000

###

Notes on MIC obtained with E. coli A9660.
Where a name gives a salt, the structure may show the parent alone.
Give bare numbers, in µg/mL.

| compound | measurement-target | metric | scale-unit | recorded-value |
| --- | --- | --- | --- | --- |
| CC1(C)S[C@@H]2[C@H](NC(=O)C(C(=O)O)c3ccccc3)C(=O)N2[C@H]1C(=O)O (stereo partly shown) [Carbenicillin, reference compound] | E. coli A9660 | MIC | µg/mL | 0.8 |
| CN(C)Cc1ccc[n+](CC2=C(C(=O)[O-])N3C(=O)C(NC(=O)[C@H](NC(=O)c4cnc5cccnc5c4O)c4ccccc4)C3SC2)c1 (stereo partly shown) | E. coli A9660 | MIC | µg/mL | 3.1 |
| CN(C)Cc1ccc[n+](CC2=C(C(=O)[O-])N3C(=O)C(NC(=O)[C@H](NC(=O)c4cnc5cccnc5c4O)c4ccc(O)cc4)C3SC2)c1 (stereo partly shown) [BB-S 651, Hydrochloride] | E. coli A9660 | MIC | µg/mL | 1.6 |

Req: For CN(C)Cc1cc[n+](CC2=C(C(=O)[O-])N3C(=O)C(NC(=O)[C@H](NC(=O)c4cnc5cccnc5c4O)c4ccc(O)cc4)C3SC2)cc1 (stereo partly shown) [BB-S 669, Hydrochloride] , what is its reported MIC?
Resp: 0.8

###

Where a name gives a salt, the structure may show the parent alone.
Notes on MIC obtained with S. aureus Smith A9537.
One number for each entry, in µg/mL.

See these solved cases before continuing.
| compound | MIC / µg/mL |
| --- | --- |
| CN(C)Cc1ccc[n+](CC2=C(C(=O)[O-])N3C(=O)C(NC(=O)[C@H](NC(=O)c4cnc5cccnc5c4O)c4ccc(O)cc4)C3SC2)c1 (stereo partly shown) [BB-S 651, Hydrochloride] | 3.1 |
| CN(C)Cc1cc[n+](CC2=C(C(=O)[O-])N3C(=O)C(NC(=O)[C@H](NC(=O)c4cnc5cccnc5c4O)c4ccc(O)cc4)C3SC2)cc1 (stereo partly shown) [BB-S 669, Hydrochloride] | 6.3 |
| CC1(C)S[C@@H]2[C@H](NC(=O)C(C(=O)O)c3ccccc3)C(=O)N2[C@H]1C(=O)O (stereo partly shown) [Carbenicillin, reference compound] | 0.2 |

Req: For CN(C)Cc1ccc[n+](CC2=C(C(=O)[O-])N3C(=O)C(NC(=O)[C@H](NC(=O)c4cnc5cccnc5c4O)c4ccccc4)C3SC2)c1 (stereo partly shown) , what is its reported MIC?
Resp: 3.1
